Attribution: ChEMBL document CHEMBL3885881

- Organism: Rattus norvegicus
- runDescription: DrugMatrix - Regimen: Daily Repeat
- Assay type: toxicity, organism-based, Sprague-Dawley
- Design: regimen Daily Repeat, gender Male, age 6-8 weeks
- runConditions: in vivo, po, 1500 mg/kg, 72 h, tissue Plasma, route oral GAVAGE, dose level High, time 3 day, vehicle .5 % CMC
assayEndpoint: ALANINE AMINOTRANSFERASE

Recorded ALANINE AMINOTRANSFERASE, per entry:
O=C1CCc2cc(OCCCCc3nnnn3C3CCCCC3)ccc2N1: 34.67 u/L
NS(=O)(=O)c1cc2c(cc1Cl)NCNS2(=O)=O [HYDROCHLOROTHIAZIDE]: 52.67 u/L

The record that follows has no ALANINE AMINOTRANSFERASE shown yet.
The reported ALANINE AMINOTRANSFERASE of the compound CCOC(=O)[C@H](CCc1ccccc1)N[C@@H](C)C(=O)N1[C@H](C(=O)O)C[C@@H]2CCC[C@@H]21 was 41.33 u/L

---

- Species on record: Rattus norvegicus
- runDescription: DrugMatrix - Regimen: Daily Repeat
- Type: toxicity, organism-based, Sprague-Dawley
- Set-up: regimen Daily Repeat, gender Male, age 6-8 weeks
- runConditions: in vivo, po, 0 mg/kg, 120 h, tissue Blood, route oral GAVAGE, dose level Control, time 5 day, vehicle .5 % CMC
assayEndpoint: LEUKOCYTE COUNT

The reported LEUKOCYTE COUNT of the molecule CN1CCC[C@@H]1CCO[C@](C)(c1ccccc1)c1ccc(Cl)cc1 was 15.03 x10E3/uL

The reported LEUKOCYTE COUNT of the molecule CCc1cccc2c3c([nH]c12)C(CC)(CC(=O)O)OCC3 (stereo not drawn) was 9.45 x10E3/uL

The reported LEUKOCYTE COUNT of the molecule CC[C@H]1OC(=O)[C@H](C)[C@@H](O[C@H]2C[C@@](C)(OC)[C@@H](O)[C@H](C)O2)[C@H](C)[C@@H](O[C@@H]2O[C@H](C)C[C@H](N(C)C)[C@H]2O)[C@](C)(O)C[C@@H](C)/C(=N\OCOCCOC)[C@H](C)[C@@H](O)[C@]1(C)O was 9.45 x10E3/uL

---

- Species: Rattus norvegicus
- runDescription: DrugMatrix - Regimen: Daily Repeat
- Type: toxicity, organism-based, Sprague-Dawley
- Parameters: regimen Daily Repeat, gender Male, age 6-8 weeks
- runConditions: in vivo, po, 0 mg/kg, 72 h, tissue Plasma, route oral GAVAGE, dose level Control, time 3 day, vehicle 100 % WATER
assayEndpoint: LIPASE (u/L)
The figure you give is taken to be in u/L; do not add the unit.

The reported LIPASE of the molecule Cc1cc(NS(=O)(=O)c2ccc(N)cc2)no1 [SULFAMETHOXAZOLE] was 10.17

The reported LIPASE of the molecule NC(=O)c1ncn([C@@H]2O[C@H](CO)[C@@H](O)[C@H]2O)n1 [RIBAVIRIN] was 9.83

The reported LIPASE of the molecule COc1ccc(C(CN(C)C)C2(O)CCCCC2)cc1 (centres undefined) [VENLAFAXINE] was 10.17

The reported LIPASE of the molecule NCC1(CC(=O)O)CCCCC1 [GABAPENTIN] was 10.17

---

- Species on record: Rattus norvegicus
- runDescription: DrugMatrix - Regimen: Daily Repeat
- Type: toxicity, organism-based, Sprague-Dawley
- Design: regimen Daily Repeat, gender Male, age 6-8 weeks
- runConditions: in vivo, po, 0 mg/kg, 72 h, tissue Plasma, route oral GAVAGE, dose level Control, time 3 day, vehicle .5 % CMC
assayEndpoint: URIC ACID
Dear colleague, please send the value followed by its unit.

C=C1CC[C@H](O)C/C1=C/C=C1\CCC[C@]2(C)[C@@H]([C@H](C)/C=C/[C@H](C)C(C)C)CC[C@@H]12 [ERGOCALCIFEROL]: 1.1 mg/dL
CCC[C@@H]1C[C@@H](C(=O)N[C@@H]([C@H]2O[C@H](SC)[C@H](O)[C@@H](O)[C@H]2O)[C@@H](C)O)N(C)C1 [LINCOMYCIN]: 1.55 mg/dL
COC(=O)c1ccc(O)cc1 [METHYLPARABEN]: 1.72 mg/dL
CC1(C)[C@H]2CC[C@]1(C)C(=O)C2 [(-)-CAMPHOR]: 1.63 mg/dL
CCc1ccc(C(=O)C(C)CN2CCCCC2)cc1 (stereo not drawn) [EPERISONE]: 1.5 mg/dL

The reported URIC ACID of the molecule CC(C)[C@H](N)C(=O)OCCOCn1cnc2c(=O)[nH]c(N)nc21 [VALACYCLOVIR] was 1.8 mg/dL

The reported URIC ACID of the molecule CCOC(=O)OC(C)OC1=C(C(=O)Nc2ccccn2)N(C)S(=O)(=O)c2ccccc21 (stereo not drawn) [AMPIROXICAM] was 1.42 mg/dL

The reported URIC ACID of the molecule Brc1ccccc1 [BROMOBENZENE] was 1.42 mg/dL

---

- Species on record: Rattus norvegicus
- runDescription: DrugMatrix - Regimen: Daily Repeat
- Type: toxicity, organism-based, Sprague-Dawley
- Parameters: regimen Daily Repeat, gender Male, age 6-8 weeks
- runConditions: in vivo, po, 0 mg/kg, 72 h, tissue Plasma, route oral GAVAGE, dose level Control, time 3 day, […]
Overview of reported ALKALINE PHOSPHATASE across a group of molecules:
The figure you give is taken to be in u/L; do not add the unit.

CCCCCCCCCc1ccc(O)cc1: 462.5
CC1=C(/C=C/C(C)=C/C=C/C(C)=C\C(=O)O)C(C)(C)CCC1: 404.5
CC(C)n1c(/C=C/C(O)CC(O)CC(=O)O)c(-c2ccc(F)cc2)c2ccccc21 (centres undefined): 317.17
Oc1c(Cl)cc(Cl)cc1Sc1cc(Cl)cc(Cl)c1O: 317.17
COc1ccc2c(c1)c(CC(=O)OCC(=O)O)c(C)n2C(=O)c1ccc(Cl)cc1: 393.83

The reported ALKALINE PHOSPHATASE of the molecule CCCC[C@@H](CC)COC(=O)c1ccccc1C(=O)OC[C@@H](CC)CCCC [BIS(2-ETHYLHEXYL)PHTHALATE] was 375

The reported ALKALINE PHOSPHATASE of the molecule CC(C)(Oc1ccc(CCNC(=O)c2ccc(Cl)cc2)cc1)C(=O)O [BEZAFIBRATE] was 329.83

The reported ALKALINE PHOSPHATASE of the molecule CN(C)CCCC1(c2ccc(F)cc2)OCc2cc(C#N)ccc21 (centres undefined) was 322.83

The reported ALKALINE PHOSPHATASE of the molecule c1ccc2[nH]c(-c3cscn3)nc2c1 was 375

---

- Species: Rattus norvegicus
- runDescription: DrugMatrix - Regimen: Daily Repeat
- Type: toxicity, organism-based, Sprague-Dawley
- Set-up: regimen Daily Repeat, gender Male, age 6-8 weeks
- runConditions: in vivo, po, 0 mg/kg, 72 h, tissue Blood, route oral GAVAGE, dose level Control, time 3 day, […]
Overview of reported ABSOLUTE LYMPHOCYTE across a group of molecules:

The reported ABSOLUTE LYMPHOCYTE of the molecule CN(C)CCCC1(c2ccc(F)cc2)OCc2cc(C#N)ccc21 (configuration not stated) was 8545.5 CELLS/uL

The reported ABSOLUTE LYMPHOCYTE of the molecule CC(=O)[C@H]1CC[C@H]2[C@@H]3CCC4=CC(=O)CC[C@]4(C)[C@H]3CC[C@]12C was 8545.5 CELLS/uL

The reported ABSOLUTE LYMPHOCYTE of the molecule C=CCN was 9670 cells/µL

The reported ABSOLUTE LYMPHOCYTE of the molecule COC1=CC(=O)C[C@@H](C)[C@]12Oc1c(Cl)c(OC)cc(OC)c1C2=O was 14687.67 CELLS/uL

The reported ABSOLUTE LYMPHOCYTE of the molecule CC(C)(Oc1ccc(CCNC(=O)c2ccc(Cl)cc2)cc1)C(=O)O [BEZAFIBRATE] was 6295.33 CELLS/uL

The reported ABSOLUTE LYMPHOCYTE of the molecule COCc1c(C(C)C)nc(C(C)C)c(/C=C/[C@@H](O)C[C@@H](O)CC(=O)O)c1-c1ccc(F)cc1 was 11091.17 CELLS/uL

The reported ABSOLUTE LYMPHOCYTE of the molecule COc1ccc2c(c1)c(CC(=O)OCC(=O)O)c(C)n2C(=O)c1ccc(Cl)cc1 was 13978.67 CELLS/uL

---

- Species on record: Rattus norvegicus
- runDescription: DrugMatrix - Regimen: Daily Repeat
- Format: toxicity, organism-based, Sprague-Dawley
- Design: regimen Daily Repeat, gender Male, age 6-8 weeks
- runConditions: in vivo, po, 0 mg/kg, 72 h, tissue Plasma, route oral GAVAGE, dose level Control, time 3 day, vehicle .5 % CMC
assayEndpoint: CHLORIDE (MEQ/L)
The figure you give is taken to be in MEQ/L; do not add the unit.

Recorded CHLORIDE, per entry:
CC1(C)[C@H]2CC[C@]1(C)C(=O)C2 [(-)-CAMPHOR]: 99.17
CCC[C@@H]1C[C@@H](C(=O)N[C@@H]([C@H]2O[C@H](SC)[C@H](O)[C@@H](O)[C@H]2O)[C@@H](C)O)N(C)C1 [LINCOMYCIN]: 99.17
Cc1c(-c2ccccc2)oc2c(C(=O)OCCN3CCCCC3)cccc2c1=O [FLAVOXATE]: 102.33
CN1CCC[C@@H]1CCO[C@](C)(c1ccccc1)c1ccc(Cl)cc1 [CLEMASTINE]: 101
Brc1ccccc1 [BROMOBENZENE]: 99.17

The reported CHLORIDE of the compound CCc1ccc(C(=O)C(C)CN2CCCCC2)cc1 (stereo not drawn) [EPERISONE] was 101.8

The reported CHLORIDE of the compound CC(/C=C1\SC(=S)N(CC(=O)O)C1=O)=C\c1ccccc1 was 101

The reported CHLORIDE of the compound NCC(=O)O [GLYCINE] was 99.33

The reported CHLORIDE of the compound COc1c(C)c2c(c(O)c1C/C=C(\C)CCC(=O)OCCN1CCOCC1)C(=O)OC2 [MYCOPHENOLATE MOFETIL] was 101

The reported CHLORIDE of the compound CCOC(=O)OC(C)OC1=C(C(=O)Nc2ccccn2)N(C)S(=O)(=O)c2ccccc21 (stereo not drawn) [AMPIROXICAM] was 99.17

The reported CHLORIDE of the compound O=c1[nH]cc(F)c(=O)[nH]1 [FLUOROURACIL] was 101.83

The reported CHLORIDE of the compound CC(C)[C@H](N)C(=O)OCCOCn1cnc2c(=O)[nH]c(N)nc21 [VALACYCLOVIR] was 100.83

The reported CHLORIDE of the compound COC(=O)c1ccc(O)cc1 [METHYLPARABEN] was 97.67
